# Target: Cytochrome P450 2C9 (Homo sapiens)
# Sequence (P11712 whole entry): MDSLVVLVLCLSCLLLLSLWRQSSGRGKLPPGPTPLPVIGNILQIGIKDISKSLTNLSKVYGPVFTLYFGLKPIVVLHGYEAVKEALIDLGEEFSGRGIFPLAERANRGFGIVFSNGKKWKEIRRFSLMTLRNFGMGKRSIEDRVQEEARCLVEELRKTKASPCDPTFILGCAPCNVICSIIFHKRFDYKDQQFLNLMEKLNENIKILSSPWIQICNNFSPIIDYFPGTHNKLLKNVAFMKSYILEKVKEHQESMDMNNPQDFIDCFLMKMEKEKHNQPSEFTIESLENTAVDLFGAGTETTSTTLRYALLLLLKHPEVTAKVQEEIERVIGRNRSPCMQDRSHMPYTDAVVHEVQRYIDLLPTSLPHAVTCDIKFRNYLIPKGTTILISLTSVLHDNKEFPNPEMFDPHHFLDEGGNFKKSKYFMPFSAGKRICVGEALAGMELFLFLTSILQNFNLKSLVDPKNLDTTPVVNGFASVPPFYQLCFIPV
Experimental readout: AC50

{"Compound": "COC(=O)Nc1nc2ccc(C(=O)c3ccccc3)cc2[nH]1 [MEBENDAZOLE]", "Experimental readout": "AC50", "Value": "inconclusive"}
{"Compound": "CCOC(=O)c1c(C)c(C(=O)N2CCN(C(=O)c3ccco3)CC2)c(C)n1C", "Experimental readout": "AC50", "Value": "inconclusive"}
{"Compound": "C[C@@]1(O)CCOC(=O)C1", "Experimental readout": "AC50", "Value": "inconclusive"}
{"Compound": "O=S(=O)(NCc1cc(-c2ccccc2Cl)no1)c1ccccc1", "Experimental readout": "AC50", "Value": "inconclusive"}
{"Compound": "Nc1ccccc1S(N)(=O)=O", "Experimental readout": "AC50", "Value": "inconclusive"}
{"Compound": "COc1ccccc1CNC(=O)CCCn1c(=O)c2ccccc2n(CC(=O)NC2CCCC2)c1=O", "Experimental readout": "AC50", "Value": "inconclusive"}
{"Compound": "COCCNc1ccnc(-c2ccccc2C(F)(F)F)n1", "Experimental readout": "AC50", "Value": "inconclusive"}
{"Compound": "CN(C)c1ccc(-c2nc(N(C)Cc3ccco3)c3ccccc3n2)cc1", "Experimental readout": "AC50", "Value": "inconclusive"}

###

# Assay comment: cytotoxicity toward DRD oncogenic fibroblasts, dose response, cell-based, non-viral oncogenic, luminescence (AID 1934)
# Assay type: functional
# Assay context: Homo sapiens
Activity calls are given as the source filed them.

{"Sample smiles": "CN(NC(=O)c1ccccc1)c1nc2ccccc2nc1C(F)(F)F", "EC50": "16.5 µM (active)"}
{"Sample smiles": "Cc1cccc(NC(=O)c2onc3c2CCCC3)n1", "EC50": "13.3 µM (active)"}
{"Sample smiles": "CCn1c2ccccc2c2cc(NC(=O)CNCc3ccccc3OC)ccc21", "EC50": "4.21 µM (active)"}
{"Sample smiles": "O=C(c1ccccc1)c1ccc(NCCCn2ccnc2)c([N+](=O)[O-])c1", "EC50": "147 µM (active)"}
{"Sample smiles": "COc1cc(C(=O)NCCOc2cc(C)cc(C)c2)cc(OC)c1OC", "EC50": "4.9 µM (active)"}
{"Sample smiles": "O=C(N/N=C/c1ccccc1Cl)c1[nH]c2ccc(Br)cc2c1-c1ccccc1", "EC50": "0.615 µM (active)"}
{"Sample smiles": "COc1ccc2c(c1)sc(N)[n+]2Cc1cc(C)cc2cccnc12", "EC50": "1.61 µM (active)"}

###

# maps each entry to its IC50
# Target: Sentrin-specific protease 7 (Homo sapiens, UniProt Q9BQF6);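 further: Luminescence-based dose-response confirmation of ultra-high-throughput screening hits, measuring inhibition of SENP7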
# Sequence (Q9BQF6 whole entry): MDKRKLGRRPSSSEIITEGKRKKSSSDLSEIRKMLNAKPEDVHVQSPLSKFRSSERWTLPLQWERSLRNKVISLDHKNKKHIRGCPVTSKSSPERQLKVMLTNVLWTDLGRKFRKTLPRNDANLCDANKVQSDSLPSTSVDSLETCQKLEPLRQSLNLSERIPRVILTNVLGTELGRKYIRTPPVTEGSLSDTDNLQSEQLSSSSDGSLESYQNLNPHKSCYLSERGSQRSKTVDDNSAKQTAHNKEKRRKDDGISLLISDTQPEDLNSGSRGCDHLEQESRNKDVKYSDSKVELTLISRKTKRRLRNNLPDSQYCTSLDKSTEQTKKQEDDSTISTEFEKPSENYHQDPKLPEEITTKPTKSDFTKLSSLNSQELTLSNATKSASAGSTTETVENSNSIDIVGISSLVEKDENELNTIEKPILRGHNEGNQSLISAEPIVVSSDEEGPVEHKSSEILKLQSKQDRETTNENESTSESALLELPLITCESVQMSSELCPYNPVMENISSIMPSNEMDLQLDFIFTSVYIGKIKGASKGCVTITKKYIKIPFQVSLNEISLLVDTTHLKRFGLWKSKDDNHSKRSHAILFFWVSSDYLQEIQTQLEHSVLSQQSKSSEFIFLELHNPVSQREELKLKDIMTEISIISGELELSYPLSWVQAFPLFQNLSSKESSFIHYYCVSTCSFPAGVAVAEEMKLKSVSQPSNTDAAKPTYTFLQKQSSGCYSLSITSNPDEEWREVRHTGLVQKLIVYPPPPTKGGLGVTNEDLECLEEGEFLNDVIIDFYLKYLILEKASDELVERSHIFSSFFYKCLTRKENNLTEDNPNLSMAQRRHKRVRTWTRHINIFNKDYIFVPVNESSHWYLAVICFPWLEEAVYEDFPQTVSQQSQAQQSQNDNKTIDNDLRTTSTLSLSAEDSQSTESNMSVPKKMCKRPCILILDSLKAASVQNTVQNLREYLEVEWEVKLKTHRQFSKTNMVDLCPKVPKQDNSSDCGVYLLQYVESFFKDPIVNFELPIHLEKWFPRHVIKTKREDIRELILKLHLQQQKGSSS
# Type: functional
Active and inactive are the calls of the source.

{"Sample smiles": "COc1nc(C)ccc1-c1noc(-c2cccs2)n1", "IC50": "5.07 µM (active)"}
{"Sample smiles": "Cc1ccc(NC(=O)C(=O)c2c[nH]c3ccccc23)cc1", "IC50": "2.41 µM (active)"}
{"Sample smiles": "O=C(O)c1ccc(-c2nc(O)c3c(-c4ccccc4)csc3n2)cc1", "IC50": "40.4 µM (active)"}
{"Sample smiles": "COc1ccc2nc(NC(=O)c3ccc([N+](=O)[O-])o3)sc2c1", "IC50": "4.54 µM (active)"}

###

# Target: Nuclear receptor subfamily 0 group B member 1 (Homo sapiens);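 further: HEK293T cells transfected with SF-1 and DAX-1 plus StAR promoter luciferase reporter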
# Sequence (P51843 whole entry): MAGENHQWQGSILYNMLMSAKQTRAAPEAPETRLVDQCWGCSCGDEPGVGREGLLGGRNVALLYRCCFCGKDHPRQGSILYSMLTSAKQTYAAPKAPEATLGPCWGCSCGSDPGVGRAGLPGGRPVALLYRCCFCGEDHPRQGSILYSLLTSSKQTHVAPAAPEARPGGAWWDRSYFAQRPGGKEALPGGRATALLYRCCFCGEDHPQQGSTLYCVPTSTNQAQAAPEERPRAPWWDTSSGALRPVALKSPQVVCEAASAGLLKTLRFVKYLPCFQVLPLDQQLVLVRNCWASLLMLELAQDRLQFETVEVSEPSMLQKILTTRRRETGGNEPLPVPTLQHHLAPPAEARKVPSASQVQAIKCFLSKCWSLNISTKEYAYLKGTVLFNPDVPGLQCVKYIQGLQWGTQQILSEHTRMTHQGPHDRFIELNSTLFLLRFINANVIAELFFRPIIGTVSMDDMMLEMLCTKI
# Assay type: functional, cell-based
Calls of active or inactive are those of the source.
# reported IC50; entries follow
Experimental readout: IC50

{"Compound": "Cc1ccnc(NC(=O)c2cccc(S(=O)(=O)N3CCOCC3)c2)c1", "Experimental readout": "IC50", "Value": "> 67.5 µM (inactive)"}
{"Compound": "CC(=Nc1ccccc1)C1=C(O)C(Cc2ccccc2)NC1=O (centres undefined)", "Experimental readout": "IC50", "Value": "15.8 µM (inactive)"}
{"Compound": "CN1CCN(c2ccc(-c3cccc(NC(=O)COc4ccc(Cl)cc4)c3)nn2)CC1", "Experimental readout": "IC50", "Value": "> 67.5 µM (inactive)"}
{"Compound": "CC(=O)Nc1ccc(-c2ccnc3c2CC(C(=O)NCc2ccccc2)O3)cc1 (centres undefined)", "Experimental readout": "IC50", "Value": "> 67.5 µM (inactive)"}

FYI, the data here is from ChEMBL document CHEMBL1201862.
